Kindly supply the reported composite z-score values for the records listed here.
protocol_details: small-molecule microarray binders of probe aWnt5a, primary screen, biochemical, biotinylated probe, 635/667 nm fluorescence (AID 1113);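 further: score merges 667 nm fluorescence intensity with signal-to-noise per printed feature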
study_conditions: higher = more signal
Answer field: number only, no words.

QUERY: Query composite z-score for C[C@]1(C(=O)NC2CC2)c2ccccc2C(=O)N(Cc2cc(C(F)(F)F)cc(C(F)(F)F)c2)[C@H]1c1ccc(CO)cc1
RESULT: -0.0478

QUERY: // Input: CCOC(=O)[C@H]1C/C=C/C[C@H](C(=O)OCC)C(=O)O[C@H]2[C@@H](OC)O[C@H](CO)[C@@H](OC(=O)Nc3cccc(F)c3)[C@@H]2OC1=O . Output its composite z-score only.
RESULT: -0.0243

QUERY: Return reported composite z-score. Input compound: COc1ccc(CCNC(=O)[C@@H]2c3ccccc3C(=O)N(C3Cc4ccccc4C3)[C@H]2c2ccc(CO)cc2)cc1
RESULT: -0.0738

QUERY: Specify composite z-score for COC(=O)[C@@]1(Cc2ccccc2)[C@H]2c3cc(C(=O)N4CCCC4)n(Cc4cccc5ccccc45)c3C[C@H]2CN1C(=O)c1ccccc1 and stop.
RESULT: 0.816

QUERY: Please list composite z-score recorded for the compound CC(C)(C)OC(=O)CC[C@]1(C(=O)O)N=C(c2ccc(OCCCO)cc2)O[C@H]1c1ccccc1N=[N+]=[N-]
RESULT: 0.38

QUERY: Provide one value: measured composite z-score of COCCOC(=O)N1C(=O)[C@@]2(c3cc(C#CCCO)ccc31)[C@H](C(=O)N1CCN(c3ncccn3)CC1)[C@H]1C(=O)O[C@H](c3ccccc3)[C@H](c3ccccc3)N1[C@@H]2c1ccccc1OCCO
RESULT: -0.0614
